target system: PTPγ (Homo sapiens (Human))
Sequence (P23470 20-1445): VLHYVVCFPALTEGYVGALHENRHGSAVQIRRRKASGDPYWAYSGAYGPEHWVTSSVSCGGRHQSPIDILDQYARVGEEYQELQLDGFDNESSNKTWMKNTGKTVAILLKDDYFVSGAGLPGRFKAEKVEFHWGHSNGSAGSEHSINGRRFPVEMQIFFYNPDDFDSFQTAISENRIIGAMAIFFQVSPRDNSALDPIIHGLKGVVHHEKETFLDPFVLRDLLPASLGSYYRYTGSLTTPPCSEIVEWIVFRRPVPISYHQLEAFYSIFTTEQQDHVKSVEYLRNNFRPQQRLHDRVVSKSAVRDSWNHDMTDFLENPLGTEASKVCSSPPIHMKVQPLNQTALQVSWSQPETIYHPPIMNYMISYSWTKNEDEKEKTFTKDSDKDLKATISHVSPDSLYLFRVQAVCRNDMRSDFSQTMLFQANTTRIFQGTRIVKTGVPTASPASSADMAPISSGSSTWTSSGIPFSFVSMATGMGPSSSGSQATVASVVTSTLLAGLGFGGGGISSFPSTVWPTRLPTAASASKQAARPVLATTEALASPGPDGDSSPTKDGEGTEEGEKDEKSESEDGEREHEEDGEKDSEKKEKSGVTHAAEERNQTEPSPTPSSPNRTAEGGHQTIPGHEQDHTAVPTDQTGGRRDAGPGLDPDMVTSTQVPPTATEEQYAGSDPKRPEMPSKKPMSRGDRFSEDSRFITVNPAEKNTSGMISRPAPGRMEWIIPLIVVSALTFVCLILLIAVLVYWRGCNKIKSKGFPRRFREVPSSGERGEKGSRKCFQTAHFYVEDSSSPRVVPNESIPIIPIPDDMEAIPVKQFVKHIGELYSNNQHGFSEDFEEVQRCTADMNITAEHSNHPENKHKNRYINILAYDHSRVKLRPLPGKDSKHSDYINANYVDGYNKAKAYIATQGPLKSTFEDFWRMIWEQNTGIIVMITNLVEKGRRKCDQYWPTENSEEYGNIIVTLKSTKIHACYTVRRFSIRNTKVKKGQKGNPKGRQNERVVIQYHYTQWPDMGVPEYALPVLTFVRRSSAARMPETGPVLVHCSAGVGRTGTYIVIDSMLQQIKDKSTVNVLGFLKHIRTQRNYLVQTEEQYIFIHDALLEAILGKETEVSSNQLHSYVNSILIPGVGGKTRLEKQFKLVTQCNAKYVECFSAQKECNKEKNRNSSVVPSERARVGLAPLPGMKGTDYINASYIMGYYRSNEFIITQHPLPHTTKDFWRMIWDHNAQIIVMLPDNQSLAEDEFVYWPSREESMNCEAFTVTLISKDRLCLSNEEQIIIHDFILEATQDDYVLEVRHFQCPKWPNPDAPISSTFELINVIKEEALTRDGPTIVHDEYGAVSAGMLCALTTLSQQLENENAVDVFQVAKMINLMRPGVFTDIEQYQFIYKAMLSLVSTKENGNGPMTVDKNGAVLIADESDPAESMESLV
assay protocol: pNPP hydrolysis enzyme assay, PTPγ
Format: biochemical
recorded metric: IC50

**Q:** GET /values?readout=IC50&item= COc1cc(CC(=O)NCC(NC(=O)C(CCCNC(=O)c2cccc(I)c2)NC(=O)C(Cc2ccc(C(F)(F)P(=O)(O)O)cc2)NC(=O)c2ccc(C)c(Br)c2)C(N)=O)ccc1O (stereo not shown) [Compound 7]
**A:** > 10000 nM

* * *

Record: pIC50 reported on PTP1B (Homo sapiens (Human), UniProt P18031).
Sequence (P18031 whole entry, species assumed): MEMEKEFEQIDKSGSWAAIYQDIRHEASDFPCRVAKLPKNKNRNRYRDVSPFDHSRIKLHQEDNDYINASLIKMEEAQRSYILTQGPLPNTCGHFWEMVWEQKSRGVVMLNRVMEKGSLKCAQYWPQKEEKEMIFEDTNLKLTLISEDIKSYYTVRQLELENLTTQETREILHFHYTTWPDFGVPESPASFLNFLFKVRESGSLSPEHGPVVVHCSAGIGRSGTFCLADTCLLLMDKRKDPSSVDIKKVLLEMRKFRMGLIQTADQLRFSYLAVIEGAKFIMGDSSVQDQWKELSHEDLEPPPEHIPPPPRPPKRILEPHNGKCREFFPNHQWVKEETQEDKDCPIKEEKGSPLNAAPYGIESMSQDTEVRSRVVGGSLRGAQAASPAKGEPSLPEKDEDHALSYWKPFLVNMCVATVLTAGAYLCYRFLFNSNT
Please treat pIC50 as minus the base-10 logarithm of the molar concentration.

Cc1ccc(C(=O)NC(Cc2ccc(C(F)(F)P(=O)(O)O)cc2)C(=O)NC(CCCNC(=O)c2cccc(I)c2)C(N)=O)cc1Br (centres unmarked) : 5.47

**Q:** Looking for the measured pIC50 of COc1cc(CC(=O)NCC(NC(=O)C(CCCNC(=O)c2cccc(I)c2)NC(=O)C(Cc2ccc(C(F)(F)P(=O)(O)O)cc2)NC(=O)c2ccc(C)c(Br)c2)C(N)=O)ccc1O (centres unmarked) , can you help?
**A:** 6.07

The measured values listed here are drawn from patent US9340574B2.
